Particulars: in ethanol, 308.15 K
Test readout: solubility (mole fraction)
Give bare numbers.

Per the records, this molecule ( CN1CCN(C2=Nc3cc(Cl)ccc3Nc3ccccc32)CC1 ) has solubility (mole fraction) equal to 0.00837

====

Particulars: in NMP, 313.15 K
Test readout: solubility (mole fraction)
Give bare numbers.

solubility (mole fraction) recorded for this molecule, CN1CCN(C2=Nc3cc(Cl)ccc3Nc3ccccc32)CC1 , is 0.075

====

Particulars: in ethanol, 298.15 K
Test readout: solubility (mole fraction)

Value of solubility (mole fraction) reported for the molecule CN1CCN(C2=Nc3cc(Cl)ccc3Nc3ccccc32)CC1 is 0.00702

====

Particulars: in n-propanol, 318.15 K
Test readout: solubility (mole fraction)
Numbers only.

Input CN1CCN(C2=Nc3cc(Cl)ccc3Nc3ccccc32)CC1 . Output solubility (mole fraction): 0.0127

====

Particulars: in toluene, 318.15 K
Test readout: solubility (mole fraction)
Answers are plain numbers.

// solubility (mole fraction) value for CN1CCN(C2=Nc3cc(Cl)ccc3Nc3ccccc32)CC1 : 0.0118

====

Particulars: in toluene, 283.15 K
Test readout: solubility (mole fraction)
Answers are plain numbers.

Entry CN1CCN(C2=Nc3cc(Cl)ccc3Nc3ccccc32)CC1 , solubility (mole fraction) reported as 0.00352

====

Particulars: in benzene, 303.15 K
Test readout: solubility (mole fraction)
Answers are plain numbers.

# solubility (mole fraction) of CN1CCN(C2=Nc3cc(Cl)ccc3Nc3ccccc32)CC1 = 0.00967

====

Particulars: in 1,2-dichloroethane, 293.15 K
Test readout: solubility (mole fraction)
Answers are plain numbers.

Given item CN1CCN(C2=Nc3cc(Cl)ccc3Nc3ccccc32)CC1 , the value recorded as its solubility (mole fraction) is 0.0183

====

Particulars: in DMSO, 318.15 K
Test readout: solubility (mole fraction)
Answers are plain numbers.

Notebook: CN1CCN(C2=Nc3cc(Cl)ccc3Nc3ccccc32)CC1 , solubility (mole fraction) read as 0.109

====

Particulars: in n-propanol, 293.15 K
Test readout: solubility (mole fraction)
One number for each entry.

According to the records, this compound CN1CCN(C2=Nc3cc(Cl)ccc3Nc3ccccc32)CC1 displays solubility (mole fraction) of 0.00669

====

Particulars: in n-propanol, 313.15 K
Test readout: solubility (mole fraction)

Measured solubility (mole fraction) of CN1CCN(C2=Nc3cc(Cl)ccc3Nc3ccccc32)CC1 : 0.0109

====

Particulars: in n-propanol, 323.15 K
Test readout: solubility (mole fraction)
Answers are plain numbers.

Kindly note the recorded solubility (mole fraction) for CN1CCN(C2=Nc3cc(Cl)ccc3Nc3ccccc32)CC1 , which is 0.0142

====

Particulars: in ethanol, 323.15 K
Test readout: solubility (mole fraction)
Give bare numbers.

Just so you know, measured solubility (mole fraction) for CN1CCN(C2=Nc3cc(Cl)ccc3Nc3ccccc32)CC1 came out at 0.0112

====

Particulars: in n-propanol, 328.15 K
Test readout: solubility (mole fraction)
Numbers only.

Consider CN1CCN(C2=Nc3cc(Cl)ccc3Nc3ccccc32)CC1 . Its measured solubility (mole fraction) is 0.0171

====

Particulars: in NMP, 323.15 K
Test readout: solubility (mole fraction)
Answers are plain numbers.

Given item CN1CCN(C2=Nc3cc(Cl)ccc3Nc3ccccc32)CC1 , the value recorded as its solubility (mole fraction) is 0.0987

====

Particulars: in DMF, 293.15 K
Test readout: solubility (mole fraction)

The reported solubility (mole fraction) of the compound CN1CCN(C2=Nc3cc(Cl)ccc3Nc3ccccc32)CC1 was 0.0893

====

Particulars: in DMF, 318.15 K
Test readout: solubility (mole fraction)
One number for each entry.

// sample CN1CCN(C2=Nc3cc(Cl)ccc3Nc3ccccc32)CC1 , its solubility (mole fraction) was 0.133

====

Particulars: in NMP, 288.15 K
Test readout: solubility (mole fraction)
Give bare numbers.

For this compound ( CN1CCN(C2=Nc3cc(Cl)ccc3Nc3ccccc32)CC1 ), measured solubility (mole fraction) is 0.0406

====

Particulars: in isopropanol, 313.15 K
Test readout: solubility (mole fraction)
One number for each entry.

Record CN1CCN(C2=Nc3cc(Cl)ccc3Nc3ccccc32)CC1 , field solubility (mole fraction): 0.00503

====

Particulars: in NMP, 303.15 K
Test readout: solubility (mole fraction)
One number for each entry.

Briefly, solubility (mole fraction) measured for CN1CCN(C2=Nc3cc(Cl)ccc3Nc3ccccc32)CC1 : 0.0606

====

Particulars: in isopropanol, 328.15 K
Test readout: solubility (mole fraction)
Give bare numbers.

Input CN1CCN(C2=Nc3cc(Cl)ccc3Nc3ccccc32)CC1 . Output solubility (mole fraction): 0.00846

====

Particulars: in 1,2-dichloroethane, 303.15 K
Test readout: solubility (mole fraction)
Numbers only.

// recorded solubility (mole fraction) for CN1CCN(C2=Nc3cc(Cl)ccc3Nc3ccccc32)CC1 : 0.0243

====

Particulars: in benzene, 318.15 K
Test readout: solubility (mole fraction)

Note to self: solubility (mole fraction) recorded for CN1CCN(C2=Nc3cc(Cl)ccc3Nc3ccccc32)CC1 was 0.0181

====

Particulars: in 1,2-dichloroethane, 333.15 K
Test readout: solubility (mole fraction)
Numbers only.

The reported solubility (mole fraction) of the compound CN1CCN(C2=Nc3cc(Cl)ccc3Nc3ccccc32)CC1 was 0.0648

====

Particulars: in n-propanol, 298.15 K
Test readout: solubility (mole fraction)
Give bare numbers.

The compound listed as CN1CCN(C2=Nc3cc(Cl)ccc3Nc3ccccc32)CC1 has a reported solubility (mole fraction) of 0.00754

====

Particulars: in isopropanol, 333.15 K
Test readout: solubility (mole fraction)
Answers are plain numbers.

Record summary for CN1CCN(C2=Nc3cc(Cl)ccc3Nc3ccccc32)CC1 : reported solubility (mole fraction) = 0.0103

====

Particulars: in NMP, 293.15 K
Test readout: solubility (mole fraction)
One number for each entry.

Lab note: measured solubility (mole fraction) of CN1CCN(C2=Nc3cc(Cl)ccc3Nc3ccccc32)CC1 was 0.0474

====

Particulars: in 1,2-dichloroethane, 288.15 K
Test readout: solubility (mole fraction)
Answers are plain numbers.

// recorded solubility (mole fraction) for CN1CCN(C2=Nc3cc(Cl)ccc3Nc3ccccc32)CC1 : 0.0157

====

Particulars: in methanol, 323.15 K
Test readout: solubility (mole fraction)

Please fill in: solubility (mole fraction) reported for CN1CCN(C2=Nc3cc(Cl)ccc3Nc3ccccc32)CC1 = 0.0118

====

Particulars: in isopropanol, 308.15 K
Test readout: solubility (mole fraction)
Answers are plain numbers.

For CN1CCN(C2=Nc3cc(Cl)ccc3Nc3ccccc32)CC1 the compound record lists solubility (mole fraction) as 0.0044

====

Particulars: in 1,2-dichloroethane, 313.15 K
Test readout: solubility (mole fraction)

# solubility (mole fraction) (compound: CN1CCN(C2=Nc3cc(Cl)ccc3Nc3ccccc32)CC1 ) is 0.0314

====

Particulars: in methanol, 298.15 K
Test readout: solubility (mole fraction)
One number for each entry.

Form field solubility (mole fraction), entry CN1CCN(C2=Nc3cc(Cl)ccc3Nc3ccccc32)CC1 : 0.00785

====

Particulars: in DMF, 303.15 K
Test readout: solubility (mole fraction)
One number for each entry.

Measured solubility (mole fraction) of CN1CCN(C2=Nc3cc(Cl)ccc3Nc3ccccc32)CC1 : 0.101

====

Particulars: in DMSO, 298.15 K
Test readout: solubility (mole fraction)
Give bare numbers.

Noted for CN1CCN(C2=Nc3cc(Cl)ccc3Nc3ccccc32)CC1 : its solubility (mole fraction) reads 0.064

====

Particulars: in acetone, 308.15 K
Test readout: solubility (mole fraction)
Answers are plain numbers.

Record CN1CCN(C2=Nc3cc(Cl)ccc3Nc3ccccc32)CC1 , field solubility (mole fraction): 0.018

====

Particulars: in toluene, 293.15 K
Test readout: solubility (mole fraction)
Answers are plain numbers.

# solubility (mole fraction) of CN1CCN(C2=Nc3cc(Cl)ccc3Nc3ccccc32)CC1 = 0.00549

====

Particulars: in n-propanol, 333.15 K
Test readout: solubility (mole fraction)
Give bare numbers.

Entry CN1CCN(C2=Nc3cc(Cl)ccc3Nc3ccccc32)CC1 ; solubility (mole fraction) = 0.0199

====

Particulars: in NMP, 308.15 K
Test readout: solubility (mole fraction)
One number for each entry.

Value of measured solubility (mole fraction) for the entry CN1CCN(C2=Nc3cc(Cl)ccc3Nc3ccccc32)CC1 : 0.0687

====

Particulars: in ethanol, 303.15 K
Test readout: solubility (mole fraction)
Numbers only.

The molecule listed as CN1CCN(C2=Nc3cc(Cl)ccc3Nc3ccccc32)CC1 shows solubility (mole fraction) equal to 0.00767

====

Particulars: in benzene, 333.15 K
Test readout: solubility (mole fraction)
Numbers only.

Sample CN1CCN(C2=Nc3cc(Cl)ccc3Nc3ccccc32)CC1 ; solubility (mole fraction) observed: 0.0303

====

Particulars: in benzene, 288.15 K
Test readout: solubility (mole fraction)
Numbers only.

response.value for CN1CCN(C2=Nc3cc(Cl)ccc3Nc3ccccc32)CC1 (field: solubility (mole fraction)) = 0.00619

====

Particulars: in acetone, 303.15 K
Test readout: solubility (mole fraction)
Answers are plain numbers.

Reported solubility (mole fraction) for CN1CCN(C2=Nc3cc(Cl)ccc3Nc3ccccc32)CC1 was 0.0164

Numbers sourced from BigSolDB 2.1.
